# TESTED_ON: T1, prefusion-stabilized RSV F ectodomain (DS-Cav1), subtype B (respiratory syncytial virus subtype B)
# T1 construct: extracellular domain; also called Prefusion subtype B
# TEST: BLI, IgG on sensor
Field: pKd. Provide a value for each of the binders that follow.
Formally, pKd is defined as -log10 of the concentration c, with c in mol/L.

Asked: If you can, please state the reported pKd value of ADI-15660 (antibody, V domains shown, IgG) VH: EVQLVQSGTEVKKPGESLKISCKASGYSSFPNWIGWVRQMPGKGLEYMGSIFPDDSNTRYSPSFRGLVAISADKSLRTAYLQWSSLKASDSAIYYCARGPFPHYFDSWGQGTLVTVSS VL: NFMLTQPHSVSESPGKTVTISCTRSSGSIARNYVQWYQQRPGSSPTTVIYEDDQRPPGVPDRFSGSIDSSSNSASLTISGLQTEDEADYYCQSYDPTNQNVFGTGTKLTVL .
Given back: 9.05

Asked: Item under review: ADI-15646 (antibody, V domains shown, IgG; also called Antibody Number 210) VH: EVQLLESGGGLIQPGGSLRLSCGASGFTVTGNYMHWVRQAPGKGLEWVSVIYAGSSTYYADSVRGRFTISRDKARNTLFLQMNRLRAEDTAVYYCARAGVVGEDRSGWYGPDYFHGLDVWGQGTTVTVSS VL: ETTLTQSPGTLSLSPGERATLSCRASQSIRNNYLAWYQQKPGQPPRLLIYGESRRATGIPGRFSGSGSGTDFTLTISSLEPEDFAVYYCQQYGGSPYTFGQGTKVDIK . Reported pKd?
Given back: 8.58

Asked: // pKd lookup, key: ADI-15588 (antibody, V domains shown, IgG; also called Antibody Number 155) VH: EVQLVESGPGLVKPSETLSLICRVFGGSVRRGDYNWNWIRQPPGKGLEWIGYIDYSGTTKYNPSLKSRVTISEDTSRNQFSLELRSVTAADTAMYYCARDVGSTPYNYYGMDVWGQGTTVTVSS VL: EIVLTQSPGTLSLSPGERATLSCRASQTIKNNYLAWYQQKPGQAPRLLMYGVSSRPTGIPDRFSGSGSGTDFSLTIDRLEPEDFAVYYCQQFGRSPELTFGGGTKVEIK
Given back: 9.37
